System: EMT6
assay summary: Aerobic cytotoxicity against murine mammary carcinoma EMT6 cells in a growth inhibition microassay
Type: functional, Mus musculus
parameter: Hypersensitivity factor
The reply should be a number, written without any unit.

# compound "Cc1ncc([N+](=O)[O-])n1CCNC(=O)Cn1c([N+](=O)[O-])cnc1C" ; its Hypersensitivity factor = 4.4

# compound COCC(O)Cn1ccnc1[N+](=O)[O-] (stereo unspecified) ; its Hypersensitivity factor = 3.6

# compound O=[N+]([O-])c1nccn1CC(O)CNCCBr (stereo unspecified) ; its Hypersensitivity factor = 1.6

# compound "O=C(CCCn1ccnc1[N+](=O)[O-])NCCn1ccnc1" ; its Hypersensitivity factor = 4.2

# compound "Cc1ncc([N+](=O)[O-])n1CCNC(=O)CCCn1ccnc1[N+](=O)[O-]" ; its Hypersensitivity factor = 1.3

# compound "Cc1ncc([N+](=O)[O-])n1CCNC(=O)CCn1ccnc1[N+](=O)[O-]" ; its Hypersensitivity factor = 2.5

# compound "O=C(CCn1ccnc1[N+](=O)[O-])NCCCn1ccnc1[N+](=O)[O-]" ; its Hypersensitivity factor = 3.5

# compound "Cc1ncc([N+](=O)[O-])n1CCNC(=O)CCCCn1ccnc1[N+](=O)[O-]" ; its Hypersensitivity factor = 1.7

# compound "Cc1ncc([N+](=O)[O-])n1CCNC(=O)Cn1ccnc1[N+](=O)[O-]" ; its Hypersensitivity factor = 2.2

# compound "Cc1ncc([N+](=O)[O-])n1CCO" ; its Hypersensitivity factor = 1

---

assay summary: The ratio of aerobic CT10 to hypoxic CT10.
Assay type: functional
Outcome label depends on Ratio relative to 8: at/above gives Satisfied, below gives Not satisfied.

# bool: Ratio of COCC(O)Cn1ccnc1[N+](=O)[O-] (configuration not stated) >= 8 Satisfied

# bool: Ratio of "Cc1ncc([N+](=O)[O-])n1CCNC(=O)CCCCCn1ccnc1[N+](=O)[O-]" >= 8 Satisfied

# bool: Ratio of "O=C(CCCn1ccnc1[N+](=O)[O-])NCCn1cncc1[N+](=O)[O-]" >= 8 Satisfied

# bool: Ratio of O=[N+]([O-])c1nccn1CC(O)CNCCBr (configuration not stated) >= 8 Satisfied

# bool: Ratio of "Cc1ncc([N+](=O)[O-])n1CCNC(=O)Cn1c([N+](=O)[O-])cnc1C" >= 8 Not satisfied

# bool: Ratio of "O=C(CCn1ccnc1[N+](=O)[O-])NCCCn1ccnc1[N+](=O)[O-]" >= 8 Not satisfied

# bool: Ratio of "Cc1ncc([N+](=O)[O-])n1CCNC(=O)Cn1ccnc1[N+](=O)[O-]" >= 8 Not satisfied

---

assay summary: Partition coefficient (logP)
Format: physicochemical
settings: octanol/water
Kindly state logP for each of the entries shown.
The reply should be a number, written without any unit.

# compound "O=C(CCCn1ccnc1[N+](=O)[O-])NCCn1ccnc1" ; its logP = 1.32

# compound "Cc1ncc([N+](=O)[O-])n1CCNC(=O)CCCn1ccnc1[N+](=O)[O-]" ; its logP = -1.28

# compound "O=C(CCCn1ccnc1[N+](=O)[O-])NCCn1ccnc1[N+](=O)[O-]" ; its logP = -1.55

# compound "Cc1ncc([N+](=O)[O-])n1CCNC(=O)CCn1ccnc1[N+](=O)[O-]" ; its logP = -0.99

---

assay summary: The ratio of aerobic CT10 to hypoxic CT10.
Assay type: functional
Kindly state Ratio for each of the entries shown.
The reply should be a number, written without any unit.

# compound "O=C(CCCn1ccnc1[N+](=O)[O-])NCCn1ccnc1" ; its Ratio = 8

# compound "Cc1ncc([N+](=O)[O-])n1CCNC(=O)CCCn1ccnc1[N+](=O)[O-]" ; its Ratio = 8
